Tested on: Mycosphaerella graminicola; Anamorph: Septoria tritici; Bayer Code SEPTTR
Experiment: Leaf blotch of wheat, foliar fungicide treatment, one day protectant (1DP) or three day curative (3DC)
Assay type: in vivo, Septoria tritici on wheat plants (variety Yuma)
Settings: Zymoseptoria tritici, 72 h, three day curative (3DC), 25 ppm, percent control rating, read-out: SEPTTR 3DC 25 ppm
ASSAY READOUT: pest or weed control at 25 ppm

Solved cases below.
{"COMPOUND STRUCTURE": "COc1ncc(F)c(NNc2nccc(C(F)(F)F)n2)n1", "ASSAY READOUT": "pest or weed control at 25 ppm", "EXPERIMENTAL RESULT": "26 to 50%"}
{"COMPOUND STRUCTURE": "C=CCOc1ncc(F)c(N/N=C/C(C)=C/C)n1", "ASSAY READOUT": "pest or weed control at 25 ppm", "EXPERIMENTAL RESULT": "0 to 25%"}
{"COMPOUND STRUCTURE": "O=C(Nc1nc(O)ncc1F)c1ccsc1", "ASSAY READOUT": "pest or weed control at 25 ppm", "EXPERIMENTAL RESULT": "0 to 25%"}
{"COMPOUND STRUCTURE": "Fc1cnc(OCc2ccccc2)nc1/N=N/c1ccccn1", "ASSAY READOUT": "pest or weed control at 25 ppm", "EXPERIMENTAL RESULT": "0 to 25%"}
{"COMPOUND STRUCTURE": "C=CCOC(=O)Nc1nc(OCc2ccc(C)cc2)ncc1F", "ASSAY READOUT": "pest or weed control at 25 ppm", "EXPERIMENTAL RESULT": "76 to 100%"}
{"COMPOUND STRUCTURE": "COc1ncc(F)c(NOCc2ccc([N+](=O)[O-])cc2)n1", "ASSAY READOUT": "pest or weed control at 25 ppm", "EXPERIMENTAL RESULT": "0 to 25%"}
{"COMPOUND STRUCTURE": "O=C(Nc1nc(O)ncc1F)c1ccc(Cl)nc1", "ASSAY READOUT": "pest or weed control at 25 ppm", "EXPERIMENTAL RESULT": "26 to 50%"}
{"COMPOUND STRUCTURE": "C=CCOc1ncc(F)c(NOCC)n1", "ASSAY READOUT": "pest or weed control at 25 ppm", "EXPERIMENTAL RESULT": "0 to 25%"}
{"COMPOUND STRUCTURE": "Fc1cnc(OCc2ccccc2)nc1NNc1nccc(C(F)(F)F)n1", "ASSAY READOUT": "pest or weed control at 25 ppm", "EXPERIMENTAL RESULT": "0 to 25%"}
{"COMPOUND STRUCTURE": "CCCCCOC(=O)Nc1nc(OCc2ccc(F)cc2)ncc1F", "ASSAY READOUT": "pest or weed control at 25 ppm", "EXPERIMENTAL RESULT": "76 to 100%"}

// next item, pest or weed control at 25 ppm requested
Ask | Tell me reported pest or weed control at 25 ppm for `COc1ncc(F)c(N/N=C/c2cc(C)nn2C)n1` , tested with Mycosphaerella graminicola; Anamorph: Septoria tritici; Bayer Code SEPTTR.
Reply | 26 to 50%
